// provenance: the supplement of paper PMC10126150

Tested on: ATP;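 note: ATP exposure 15 min at 22 °C before imaging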
procedure-text: switch fluorescence ratio, 500 uM ATP over buffer (Cy3 cluster intensity, sum of 5 cycles each) (fold (ratio)); higher = stronger signal-on switching upon ATP binding; sequences stand for … in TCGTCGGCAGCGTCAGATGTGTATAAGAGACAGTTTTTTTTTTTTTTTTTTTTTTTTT…TC
condition: aptamer strand: ATP DNA aptamer (quencher-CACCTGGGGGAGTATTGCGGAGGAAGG + anchor), 100 nM annealed; ATP concentration: 500 uM
result-type: switch fluorescence ratio

Past entries and their recorded results:
| input-sequence | measured |
| --- | --- |
| GTGCATGGGA | 0.997 |
| TTCTTCTGGG | 0.997 |
| GTTCGGGATT | 0.981 |
| GTCTGGGCTG | 0.986 |
| TGGTGCTTGG | 1.04 |

# lookup: switch fluorescence ratio of CATTGGGCGA
0.982

* * *

Test system: ATP;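 note: ATP exposure 15 min at 22 °C before imaging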
procedure-text: switch fluorescence ratio, 500 uM ATP over buffer (Cy3 cluster intensity, sum of 5 cycles each) (fold (ratio)); higher = stronger signal-on switching upon ATP binding; sequences stand for … in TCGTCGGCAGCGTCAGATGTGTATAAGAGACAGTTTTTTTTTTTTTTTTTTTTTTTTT…TC
condition: aptamer strand: ATP DNA aptamer (quencher-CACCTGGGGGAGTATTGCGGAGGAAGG + anchor), 100 nM annealed; ATP concentration: 500 uM
Reported switch fluorescence ratio is given for each of the following sequences.
Please give the numeric answer without any surrounding text.

| input-sequence | switch fluorescence ratio |
| --- | --- |
| GGATACCGTA | 1 |
| ATTGGGCGAG | 0.993 |
| CATACATACG | 1.42 |
| GGGGAAGGTG | 1.79 |
| ATAAATGTTA | 0.999 |
| TGCATGGAGC | 0.995 |

What switch fluorescence ratio value was documented for this sequence, TAAAGAGTCG ?
1.02

// next record TGGTTTCAGA
0.984

How about GTTTAATTTT ?
0.987

Also, GGGGGTAGCG please.
1.02

What about TTTAATGCGC ?
1.23

Same read-out for TTTATCTGAA ?
0.978

Also, TGCATGAAGC please.
1.03

Next record, please: TGGGCATAAA
1.01

Now this one: ATCATAGCGG
1

One more sequence: ACTTGCACTC
1.34

Same question for TAGGCTTAGG please.
1.03

One more sequence: GCAGGGGTTC
1.16

Same again, this time with TTCTGGTGTG
0.97

Let us now turn to GTTGCGTCGA
0.997

Another sequence: TAATTAGTGT
0.979

Continue with TTGAGCAAGT
1.14

Another: TTATCCGGCG
0.986

Lookup GAGCTGGGTC
1.02

Same for TAGTAGAGGT
1

Record: GGGGAGGAAT
0.971

* * *

System: ATP;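 note: ATP exposure 15 min at 22 °C before imaging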
procedure-text: switch fluorescence ratio, 500 uM ATP over buffer (Cy3 cluster intensity, sum of 5 cycles each) (fold (ratio)); higher = stronger signal-on switching upon ATP binding; sequences stand for … in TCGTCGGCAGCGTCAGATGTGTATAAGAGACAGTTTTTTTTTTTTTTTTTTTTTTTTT…TC
condition: aptamer strand: ATP DNA aptamer (quencher-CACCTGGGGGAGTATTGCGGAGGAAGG + anchor), 100 nM annealed; ATP concentration: 500 uM
result-type: switch fluorescence ratio
Output spec: single numeric token, no unit.

| input-sequence | measured |
| --- | --- |
| GCGATCAGAC | 1.15 |
| TAGGGGTTGG | 0.987 |
| CTTGGGAATT | 0.979 |
| GGGTCCAAGG | 1.03 |
| CGAGGGAGGG | 0.999 |

Look up switch fluorescence ratio: GCGTGGTCTG
0.971

Same again, this time with AGAGTAGTTG
0.971

# repeat for GATGATATGG
0.985

Item: CGCTATTGGT
1

Entry to check: AAGTACTAGC
1.21

Same question for GCTTGTTACG please.
0.984

Now consider GACTTTTGTA and answer again.
0.981

And for GCGGATGTAG ?
1.01

Further, for CGGTCTACCT ?
1.02

And the next one, GGAGTGGGTC ?
1.02

Likewise for ATTGTTTTTG ?
1.01

Input TAATCCGCGG
1.14

* * *

Test system: ATP;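 note: ATP exposure 15 min at 22 °C before imaging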
procedure-text: switch fluorescence ratio, 500 uM ATP over buffer (Cy3 cluster intensity, sum of 5 cycles each) (fold (ratio)); higher = stronger signal-on switching upon ATP binding; sequences stand for … in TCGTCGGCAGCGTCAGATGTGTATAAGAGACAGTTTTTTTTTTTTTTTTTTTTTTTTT…TC
condition: aptamer strand: ATP DNA aptamer (quencher-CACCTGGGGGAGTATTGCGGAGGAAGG + anchor), 100 nM annealed; ATP concentration: 500 uM
This listing pairs sequences with measured switch fluorescence ratio.
Give your answer as a number; write no unit.

Examples from the recorded data:
| input-sequence | switch fluorescence ratio |
| --- | --- |
| CTTCGGAGTG | 1.02 |
| TTTTTAAATA | 0.986 |
| GAAATGTTGG | 0.981 |

Dear colleague, I am looking for the recorded switch fluorescence ratio of the following sequence: GGGGGTCATT
0.951

Record: CTGAAAACTA
1.02

Try this sequence next: ATGGTAGTGG
0.995

# iterate: TGAAACTATT
1.01

And what about the sequence GAAGTGCGAG ?
1

Next sequence: GGTCTCTGGG
1

Now the sequence TAGGGGAATT
0.967

* * *

Listing of recorded switch fluorescence ratio by entry.
Tested on: ATP;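 note: ATP exposure 15 min at 22 °C before imaging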
procedure-text: switch fluorescence ratio, 500 uM ATP over buffer (Cy3 cluster intensity, sum of 5 cycles each) (fold (ratio)); higher = stronger signal-on switching upon ATP binding; sequences stand for … in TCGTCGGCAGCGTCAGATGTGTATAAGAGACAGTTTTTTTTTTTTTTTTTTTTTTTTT…TC
condition: aptamer strand: ATP DNA aptamer (quencher-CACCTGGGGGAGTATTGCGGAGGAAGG + anchor), 100 nM annealed; ATP concentration: 500 uM
Please respond with just the number, no unit label.

| input-sequence | measured |
| --- | --- |
| TTGGAAAGTT | 1.01 |

# ---- query sequence ----
State the recorded switch fluorescence ratio for this entry: ATATGCGAAC
1.1

* * *

Entries and their switch fluorescence ratio values follow.
Test system: ATP;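 note: ATP exposure 15 min at 22 °C before imaging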
procedure-text: switch fluorescence ratio, 500 uM ATP over buffer (Cy3 cluster intensity, sum of 5 cycles each) (fold (ratio)); higher = stronger signal-on switching upon ATP binding; sequences stand for … in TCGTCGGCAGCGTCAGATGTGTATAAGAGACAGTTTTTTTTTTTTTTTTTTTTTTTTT…TC
condition: aptamer strand: ATP DNA aptamer (quencher-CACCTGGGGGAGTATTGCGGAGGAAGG + anchor), 100 nM annealed; ATP concentration: 500 uM
// no unit, no text: just the number

Sample answers from the record:
| input-sequence | measured |
| --- | --- |
| GTGGGGGGCA | 0.991 |
| TTGCAGGTGG | 1.03 |
| TTTCTAGCGG | 1.01 |
| CTTGTTGATG | 1 |
| GTAATGATCT | 1.06 |

Request the reported switch fluorescence ratio associated with TCGTGTTACT
1.01

Same read-out for GATTTGGAGA ?
1

How about TTGTATTTTT ?
0.98

Further, for GTGGGTTTGC ?
1.03

Moving on to GGGGGGTCGA
1

Field entry: TAGAGGGCAG
1.03

Now consider GGGTGGATTG .
0.983

Proceed to TTTGATATGC
1.12

Entry to check: TTGGGGGGCT
1.01

* * *

System: ATP;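 note: ATP exposure 15 min at 22 °C before imaging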
procedure-text: switch fluorescence ratio, 500 uM ATP over buffer (Cy3 cluster intensity, sum of 5 cycles each) (fold (ratio)); higher = stronger signal-on switching upon ATP binding; sequences stand for … in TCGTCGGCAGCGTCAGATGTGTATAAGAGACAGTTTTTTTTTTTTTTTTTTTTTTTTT…TC
condition: aptamer strand: ATP DNA aptamer (quencher-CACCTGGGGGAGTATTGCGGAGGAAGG + anchor), 100 nM annealed; ATP concentration: 500 uM
result-type: switch fluorescence ratio
The answer should be written as a number, with no unit following it.

Consider the worked cases shown below.
| input-sequence | switch fluorescence ratio |
| --- | --- |
| TTAGTGCGGA | 0.994 |
| CCTGGGGTCG | 1.05 |
| TGACCATTGC | 1.09 |

Recorded switch fluorescence ratio for GCTTGGGTGC , please?
1.04

And the next one, CAGACGGTTT ?
1.1

* * *

System: ATP;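 note: ATP exposure 15 min at 22 °C before imaging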
procedure-text: switch fluorescence ratio, 500 uM ATP over buffer (Cy3 cluster intensity, sum of 5 cycles each) (fold (ratio)); higher = stronger signal-on switching upon ATP binding; sequences stand for … in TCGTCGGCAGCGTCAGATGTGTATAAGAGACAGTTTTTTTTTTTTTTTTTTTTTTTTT…TC
condition: aptamer strand: ATP DNA aptamer (quencher-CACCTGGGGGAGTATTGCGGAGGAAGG + anchor), 100 nM annealed; ATP concentration: 500 uM
# key: entry, value: switch fluorescence ratio
Could you keep your reply to the number by itself?

| input-sequence | system-tested | result-type | measured |
| --- | --- | --- | --- |
| AGAATGATTG | ATP | switch fluorescence ratio | 0.988 |

What measured switch fluorescence ratio goes with TGGCGAGGCG ?
1.05

Next sequence: AGAGTTGTTA
0.996

# iterate: TTTCGGATCA
0.933

Repeat with GTGTATCGTC
0.982

Also, AAACAGATAA please.
1.04

Try this sequence next: TCAAAACTGT
1.07

// query: ACACATCCGG
1.06

Next record, please: ATGGTGTAGG
1.01
